Test system: COLO 205
method description: NCI tumour cell line growth inhibition, 48 h
Activity calls are given as the source filed them. Cut-off read from the data, not from the text of the source: active = GI50 up to about 1.1 µM and inactive = higher.
Valid outcomes are listed here; reply with one: Y (active), N (inactive)

[
  {
    "compound": "CN1N=C(c2ccncc2)OC1c1ccc(Cl)c(Cl)c1 (stereo unspecified)",
    "target": "COLO 205",
    "cat": "N"
  },
  {
    "compound": "O=C(Cc1nc2ccccc2o1)C(=O)Nc1ccccc1C(F)(F)F",
    "target": "COLO 205",
    "cat": "N"
  },
  {
    "compound": "CCN(CC)CCCC(C)Nc1ccnc2cc(Cl)ccc12 (stereo unspecified) [CHLOROQUINE PHOSPHATE]",
    "target": "COLO 205",
    "cat": "N"
  },
  {
    "compound": "CO/C(=N\\N=C\\c1ccc(Cl)cc1Cl)c1ccncc1",
    "target": "COLO 205",
    "cat": "N"
  },
  {
    "compound": "NC(=O)C1C(=O)Oc2cccnc21 (stereo unspecified)",
    "target": "COLO 205",
    "cat": "N"
  },
  {
    "compound": "CC1=NN(c2ccccc2)C(=O)/C1=C\\c1c(C)[nH]n(-c2ccccc2)c1=O",
    "target": "COLO 205",
    "cat": "N"
  },
  {
    "compound": "CS(=O)(=O)OCC1OC(n2ccc(NC(=O)c3ccccc3)nc2=O)CC1OS(C)(=O)=O (stereo unspecified)",
    "target": "COLO 205",
    "cat": "N"
  },
  {
    "compound": "CCCCN(CCCC)CCC(O)c1cc(-c2ccc(C(F)(F)F)cc2)nc(-c2ccc(C(F)(F)F)cc2)c1 (stereo unspecified)",
    "target": "COLO 205",
    "cat": "N"
  },
  {
    "compound": "CCc1c(O)nc(Nc2nc3ccccc3[nH]2)[nH]c1=O",
    "target": "COLO 205",
    "cat": "N"
  },
  {
    "compound": "COC(=O)c1cc2c(cc1Cl)Sc1nnc(Nc3ccccc3)n1S2(=O)=O",
    "target": "COLO 205",
    "cat": "N"
  }
]

Dear all, I need the recorded test outcome for COC(=O)C(C(=O)C(=O)Nc1ccc([N+](=O)[O-])cc1[N+](=O)[O-])c1nc2ccc(Cl)cc2nc1O (stereo unspecified) , thank you.
N

Dear all, I need the recorded test outcome for "COC(=O)Nc1nc2cc(Oc3ccc4nc(NC(=O)OC)[nH]c4c3)ccc2[nH]1" , thank you.
Y

Dear all, I need the recorded test outcome for CC(=O)O[C@@H]1CC2[C@@H](CCC3Cc4nc5c(nc4C[C@@]32C)CC2CC[C@@H]3C(CC[C@@]4(C)C3CC[C@@H]4C(C)CCCC(C)C)[C@@]2(C)C5)C2C[C@@H]3OC4(CCC(C)CO4)C(C)[C@@H]3[C@]21C (stereo partly specified) , thank you.
N

Dear all, I need the recorded test outcome for Oc1cc(O)c2c(c1)OC(c1ccc(O)c(O)c1)C(OC1(c3cc(O)c(O)c(O)c3)Oc3cc(O)cc(O)c3C(O)C1O)C2 (stereo unspecified) , thank you.
N

Dear all, I need the recorded test outcome for "COc1ccc(/C(Cl)=C/c2ccc(Cl)c(Cl)c2)cc1" , thank you.
N

Dear all, I need the recorded test outcome for "Cc1ccc(C=C(C(=O)O)C(=O)O)o1" , thank you.
N

Dear all, I need the recorded test outcome for CCN(CC)CC(C)C(=O)/C=C/c1ccc(C)cc1 (stereo unspecified) , thank you.
N

Dear all, I need the recorded test outcome for "O=c1[nH]nc(Cc2ccccc2)n1N=C1CCCCC1" , thank you.
N

Dear all, I need the recorded test outcome for "C#CC(=O)OCC#CCOC(=O)C#C" , thank you.
N

Dear all, I need the recorded test outcome for "CCOP(=O)(OCC)C(C)(C)N(C)/C(F)=N/C(F)(F)F" , thank you.
N

Dear all, I need the recorded test outcome for "NC(=O)NC12CC3CC(CC(F)(C3)C1)C2" , thank you.
N

Source listed as ChEMBL document CHEMBL1201862.
